Ref: ChEMBL document CHEMBL1142967

test: Cytotoxicity against CEM/0 cells; type: cell-based, CCRF-CEM; settings: human, CEM/0 cells
Result Type: CC50 (µM)
// units = µM; emit number, no label

The reported value for Cc1cn([C@H]2C=C[C@@H](COP3(=O)OCc4cccc(-c5cccc(CO)c5O)c4O3)O2)c(=O)[nH]c1=O (stereo in doubt; 29(Sp)) in terms of CC50 is 78.7

Form: molecule = Cc1cn([C@H]2C=C[C@@H](COP3(=O)OCc4cccc(-c5ccccc5)c4O3)O2)c(=O)[nH]c1=O (some centres not stated) ; CC50 = 22

CC50 in this record for Cc1cn([C@H]2C=C[C@@H](CO)O2)c(=O)[nH]c1=O [STAVUDINE] : 105

Per the records, this molecule ( Cc1cn([C@H]2C=C[C@@H](COP3(=O)OCc4cccc(-c5cccc6c5OC(C)(C)OC6)c4O3)O2)c(=O)[nH]c1=O (stereo in doubt; 33(Sp)) ) has CC50 equal to 89.3

Looking up Cc1cc2c(c(-c3cc(C)cc4c3OP(=O)(OC[C@@H]3C=C[C@H](n5cc(C)c(=O)[nH]c5=O)O3)OC4)c1)OP(=O)(OC[C@@H]1C=C[C@H](n3cc(C)c(=O)[nH]c3=O)O1)OC2 (some centres not stated) , I found its CC50 recorded as 67.1

----------
assay: Hydrolytic stability in 25 mM phosphate buffer at pH 7.3, 37 degC; assay type: physicochemical; settings: phosphate buffer
Exercise: for every item that follows, state its recorded half-life.
A number alone suffices; assume h.

Summary for this compound, Cc1cn([C@H]2C=C[C@@H](COP3(=O)OCc4cccc(-c5cccc(CO)c5O)c4O3)O2)c(=O)[nH]c1=O (stereo in doubt; 29(Sp)) : half-life is 1.1

Reported half-life for Cc1cn([C@H]2C=C[C@@H](COP3(=O)OCc4cccc(-c5ccccc5)c4O3)O2)c(=O)[nH]c1=O (some centres undefined) was 5.1

Reported half-life for Cc1cc2c(c(-c3cc(C)cc4c3OP(=O)(OC[C@@H]3C=C[C@H](n5cc(C)c(=O)[nH]c5=O)O3)OC4)c1)OP(=O)(OC[C@@H]1C=C[C@H](n3cc(C)c(=O)[nH]c3=O)O1)OC2 (some centres undefined) was 12

Per the records, this compound ( Cc1cn([C@H]2C=C[C@@H](COP3(=O)OCc4cccc(-c5cccc6c5OC(C)(C)OC6)c4O3)O2)c(=O)[nH]c1=O (stereo in doubt; 33(Sp)) ) has half-life equal to 14
